Recorded growth, one value per entry.
# Test system: RXF 393 renal
# Protocol description: NCI-60 one-dose screen, 48 h (100 = growth as untreated, 0 = no growth, -100 = all killed)
# Run conditions: 10 µM unless noted
# Experimental: Cells are grown in 96 well plates and exposed to the test compound for 48 hours. Compounds are tested at a single concentration, which is 10^-5 M for most compounds. The reported endpoint is percent growth (GI% or GIPRCNT), where numbers from 0 - 100% represent growth inhibition, and numbers from -100% - 0 represent cell death. For example, a value of 40 represents 60% growth inhibition. A value of 0 means no net growth occurred over the course of the experiment. […]
Compounds without any hit were thinned out: in the full panel of roughly 83,000, 20% have a hit. Activity calls are given as the source filed them. Rule for the calls: active = growth percent below 10; inactive = the rest.

Compound	growth
Nc1nc(N)c2c(n1)NC(c1ccc(Cl)cc1)CC(c1ccc(Nc3nc(NCCO)nc(Nc4ccc(Cl)cc4)n3)cc1)=N2 (stereo unspecified)	43.6% (inactive)
CNC(=O)c1cc(Oc2ccc3nc(NC(=O)c4cc(C)cc(C)c4)sc3c2)ccn1	69.2% (inactive)
O=C(/C=C/Nc1ccc(S(=O)(=O)O)cc1)c1ccc(F)cc1	99.9% (inactive)
C#C[C@]1(O)CC[C@H]2[C@@H]3CC=C4c5sc(Nc6cccc(C)n6)nc5CC[C@]4(C)[C@H]3CC[C@@]21C	-60.4% (active)
Cc1cc(F)cc(NS(=O)(=O)c2ccc(-c3cnc(C4CC4)o3)cc2)c1	-3.39% (active)
CCN(CC)CCCC(C)NCC(=O)NC(c1ccc2c(c1)OCO2)c1cc(Cl)c2cccnc2c1O (stereo unspecified)	67.5% (inactive)
O=C(Nc1cccc(-c2nc(-c3ccc(NC(=O)c4cccnc4)cc3Cl)no2)c1)Nc1ccc(NC(=O)C2CC2)c(C(F)(F)F)c1	-82% (active)
O=S(=O)(Nc1ccc(-c2nc(-c3cccc(O)c3)c(-c3ccnc(Br)c3)[nH]2)cc1)c1ccccc1	-16.3% (active)
CC(C)N=C(N/C(N)=N/c1nc2ccccc2s1)NC(C)C	51.9% (inactive)
COC(=O)Nc1ccc(-c2nc(-c3cccc(O)c3)c(-c3ccnc(Br)c3)[nH]2)cc1	-4.89% (active)
COc1ccc(Cn2cc3c(c2-c2cc(OC)c(OC)c(OC)c2)CCCc2cnoc2-3)cc1	-2.75% (active)
CNC(=O)c1cc(Oc2ccc3nc(NC(=O)c4ccc(CN5CCN(C)CC5)c(C(F)(F)F)c4)sc3c2)ccn1	46.7% (inactive)
O=C(CCCCCCN1CC(=O)N2[C@@H](c3cc(F)cc(F)c3)c3[nH]c4ccccc4c3C[C@H]2C1=O)NO	33.6% (inactive)
CSc1nccc(-c2c(-c3ccc(F)c(OCc4ccc(F)cc4)c3)nc3sccn23)n1	84% (inactive)
C#C[C@]1(O)CC[C@H]2[C@@H]3CC=C4c5sc(C6CC6)nc5CC[C@]4(C)[C@H]3CC[C@@]21C	5.22% (active)
COCCC[C@H]1O[C@@](O)([C@H](C)[C@@H]2CC(OC)C(O)/C=C(C)/C=C(C)/C=C(\C)C(OC3O[C@@H](C)[C@H](O)C(O)[C@@H]3O)C(C)/C=C(C)/C=C(OC)/C=C(\C)C(=O)O2)C(OC)C(O)[C@]1(C)O[C@H]1C[C@@H](O)[C@H](O[C@H]2C[C@](C)(O)[C@H](O)C(C)O2)C(C)O1 (stereo partly specified)	47.6% (inactive)

Origin of measurements: PubChem BioAssay (NCI)
